Sourced from patent US20110091971A1

Tested on: H1 or H9 human embryonic stem cells
Assay: Activin A bioassay: differentiation of human embryonic stem cells to definitive endoderm, cell number and SOX17 intensity by high content analysis (96-well, four days)
Type: cell-based
Details: supernatant concentration 10x, assay dilution 1:20; control = R&D Sys Activin A 100 ng/ml on same plate
Record form. Attribute: Sox 17 Intensity % of control. Fill in for each entry.
Numbers only, in %.

Solved cases below.
• ACTN15: activin A variant peptide, SEQ ID 16 (protein) GLECDGKVNLCCKKQDFVSFKDIGWNDWIIAPSGYHANRCSGLCPSHIAGTSGSSLSFHSTVINHYRMRGHSPFSNMGSCCIPTKLRPMSMLYYDDGQNIIKKDIQNMIVEECGCS = 20.5
• ACTN90: activin A variant peptide, SEQ ID 91 (protein) GLECDGKVNICCKKQSFGQTKDIGWNDWIIAPSGYHGGSCSGECPSHIAGTSGSSLSFHSTVINHYRMRGHSPFANLKSCCSPTKLRPMSMLYYDDGQNIIKKDIQNMKVEECGCT = 1.8

Here is the next item to consider.
INPUT: Dear colleague, I am looking for the recorded Sox 17 Intensity % of control of the following molecule: ACTN46: activin A variant peptide, SEQ ID 47 (protein) GLECDGKVNLCCKKQNFVSFKDIGWNDWIIAPSGYHANECGGLCPSHIAGTSGSSLSFHSTVINHYRMRGHSPHANRGACCIPTKLRPMSMLYYDDGQNIIKKDIQNMIVEECGCS
OUTPUT: 14.1
